Attribution: patent US11365199B2

Target Or Test System: follicle-stimulating hormone (FSH) receptor (Rattus norvegicus, UniProt P20395)
Construct: endogenous in cells; host or cells: primary rat granulosa cells
Sequence (P20395 18-692): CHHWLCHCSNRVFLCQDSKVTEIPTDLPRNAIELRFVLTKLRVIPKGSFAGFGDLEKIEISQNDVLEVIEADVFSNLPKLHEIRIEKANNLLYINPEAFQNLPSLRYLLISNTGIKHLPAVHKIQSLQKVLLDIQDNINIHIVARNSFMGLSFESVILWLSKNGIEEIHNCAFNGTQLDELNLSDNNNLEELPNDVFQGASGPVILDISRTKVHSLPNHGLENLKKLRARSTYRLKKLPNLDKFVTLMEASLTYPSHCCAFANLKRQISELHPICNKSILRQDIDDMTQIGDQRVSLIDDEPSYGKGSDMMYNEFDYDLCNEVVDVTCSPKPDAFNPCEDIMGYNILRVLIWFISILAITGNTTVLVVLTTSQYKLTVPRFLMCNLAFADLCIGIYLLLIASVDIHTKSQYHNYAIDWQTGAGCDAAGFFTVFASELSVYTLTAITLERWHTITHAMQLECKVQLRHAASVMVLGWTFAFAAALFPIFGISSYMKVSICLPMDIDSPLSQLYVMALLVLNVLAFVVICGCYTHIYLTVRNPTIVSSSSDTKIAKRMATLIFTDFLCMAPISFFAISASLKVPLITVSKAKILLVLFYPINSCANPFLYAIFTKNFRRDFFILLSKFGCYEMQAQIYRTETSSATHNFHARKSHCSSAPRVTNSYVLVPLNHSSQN
Procedure Details: Rat granulosa EC50 FSH (Assay B)
Type: cell-based
Study Conditions: rat granulosa cells; read-out: Assay B: Rat granulosa EC50 FSH
Value Type: EC50

INSERT INTO results (compound, value_type, test_value) VALUES
  ('COc1cc2c(cc1C1CCCO1)-c1c(c(C(=O)N(C)C(C)(C)C)nn1-c1ccsc1)CO2 (stereo not shown)', 'EC50', '1000 to 5000 nM'),
  ('[2H]C([2H])([2H])OCC1(N(C(=O)c2nn(-c3ccsc3)c3c2COc2cc(OC)c(-c4ccnn4C)cc2-3)C([2H])([2H])[2H])COC1', 'EC50', '1000 to 5000 nM'),
  ('COc1cc2c(cc1CNC(C)=O)-c1c(c(C(=O)N3CCOCC3(C)C)nn1-c1ccsc1)CO2', 'EC50', '> 5000 nM');

Answer for every listed entry: what is its EC50? The entries follow.
1. [2H]C([2H])([2H])N(C(=O)c1nn(-c2ccsc2)c2c1COc1cc(OC)c(-c3ccn(C)n3)cc1-2)C1(C)COC1
2. COc1cc2c(cc1C=C(C)C)-c1c(c(C(=O)N(C)CCN3CCOC3=O)nn1-c1ccsc1)CO2

["1000 to 5000 nM", "< 100 nM"]

Batch request: EC50 per item, same order as input.
1. COC(=O)C1CCCN(C(=O)c2nn(-c3ccsc3)c3c2COc2cc(OC)c(OC(C)C)cc2-3)CC1 (stereo not shown)
2. [2H]C([2H])([2H])N(C(=O)c1nn(-c2ccsc2)c2c1COc1cc(OC)c(-c3ccn(C)c3)cc1-2)C1(C)COC1

1: 1000 to 5000 nM; 2: 100 to 1000 nM
